- Tested on: CCRIS mutagenicity, Ames/micronucleus/aberration tests
- method_notes: CCRIS mutagenicity studies
- settings: Test System: AMES SALMONELLA TYPHIMURIUM; Strain/Indicator: TA1535; Metabolic Activation: HAMSTER, LIVER, S-9, AROCLOR 1254 (30%); Method: PREINCUBATION
Active and inactive are the calls of the source. The rule behind the calls is not given here.
Select the correct class. Options are active, inactive and nothing else.

How did this test come out for `C=CCNC(N)=O` ?
active

How did this test come out for `Oc1cc(Cl)c(Cl)c(Cl)c1` ?
inactive

How did this test come out for `Cc1ccc(N)cc1` ?
inactive

How did this test come out for `FC(F)(F)c1cccc(Cl)c1` ?
inactive

How did this test come out for `N#CCc1ccccc1` ?
inactive

How did this test come out for `CCCCOCCCC` ?
inactive

How did this test come out for `O=[N+]([O-])CCO` ?
inactive

How did this test come out for `CNc1ccccc1` ?
inactive

How did this test come out for `CC(C)[N+](C)(CCOC(=O)C1c2ccccc2Oc2ccccc21)C(C)C` ?
inactive

How did this test come out for `CCCCCCCCCCCC(=O)O` ?
inactive

How did this test come out for CCCCC(C=O)CC (stereo not given) ?
inactive

How did this test come out for `O.O.O.O.O.O.O=[N+]([O-])[O-].O=[N+]([O-])[O-].O=[N+]([O-])[O-].[La+3]` ?
inactive

How did this test come out for `CCN(C(=O)N(CC)c1ccccc1)c1ccccc1` ?
inactive

How did this test come out for C=CC(C)C#N (stereo not given) ?
inactive

How did this test come out for `OC[P+](CO)(CO)CO` ?
inactive

* * *

- Test system: CCRIS mutagenicity, Ames/micronucleus/aberration tests
- method_notes: CCRIS mutagenicity studies
- settings: Test System: AMES SALMONELLA TYPHIMURIUM; Strain/Indicator: TA1535; Metabolic Activation: NONE; Method: PREINCUBATION
Activity calls are given as the source filed them. The rule behind the calls is not given here.
Select the correct class. Options are active, inactive and nothing else.

How did this test come out for `CC(=O)OCN(C)N=O` ?
active

How did this test come out for `Cc1ccccn1` ?
inactive

How did this test come out for CC(C)CCC(C)Nc1ccc(NC(C)CCC(C)C)cc1 (stereo not drawn) ?
inactive

How did this test come out for `COc1cc(CNC(=O)CCCC/C=C/C(C)C)ccc1O` ?
inactive

How did this test come out for `O=S(=O)(O)c1cc(S(=O)(=O)O)c2cc(O)ccc2c1` ?
inactive

How did this test come out for `CCOCCOC(C)=O` ?
inactive

How did this test come out for `O=[N+]([O-])c1cccc(O)c1` ?
inactive

How did this test come out for `c1ccc(N(c2ccccc2)c2ccccc2)cc1` ?
inactive

How did this test come out for `Nc1cc(Cl)cc(S(=O)(=O)O)c1O` ?
inactive

How did this test come out for `Cc1cc(=O)[nH]c(=S)[nH]1` ?
inactive

How did this test come out for `CCCCCCCCOP(=O)(OCCCCCCCC)OCCCCCCCC` ?
inactive

How did this test come out for `[K+]` ?
inactive

How did this test come out for CCCCC(C=O)CC (stereo not drawn) ?
inactive

How did this test come out for CC(Cl)CCCC(Cl)CCCC(Cl)CCCC(Cl)CCCC(Cl)CCCC(Cl)CCCl (stereo not drawn) ?
inactive

How did this test come out for `NC(N)=O` ?
inactive

How did this test come out for `CC(C)CN(CC(C)C)CC(C)C` ?
inactive

How did this test come out for `COc1ccc(C(=O)/C(Br)=C\C(=O)O)cc1` ?
inactive

How did this test come out for `c1ccc2c(c1)ccc1ccccc12` ?
inactive

How did this test come out for `CCOS(=O)(=O)OCC` ?
active

How did this test come out for `CC(C)c1ccccc1OP(=O)(Oc1ccccc1)Oc1ccccc1` ?
inactive

How did this test come out for `ClC(Br)Br` ?
inactive

How did this test come out for `O=C1C(Cl)=C(Cl)C(=O)c2ccccc21` ?
inactive

How did this test come out for `CCc1ccccc1O` ?
inactive

How did this test come out for `O=C1C=C(O)c2ccccc2C1=O` ?
inactive

How did this test come out for `Cc1ccc(N)cc1` ?
inactive

How did this test come out for CCCCCCCCC1CO1 (stereo not drawn) ?
inactive

How did this test come out for CC1CO1 (stereo not drawn) ?
active

How did this test come out for `COC(=O)c1ccccc1C(=O)OC` ?
inactive

How did this test come out for `O=C1C=Cc2ccccc2C1=O` ?
inactive

How did this test come out for `C[n+]1c2ccccc2cc2ccc(N)cc21` ?
inactive

How did this test come out for `CCCNCCC` ?
inactive

How did this test come out for `CCOP(=O)(OCC)OCC` ?
inactive

How did this test come out for `COc1c2occc2cc2ccc(=O)oc12` ?
inactive

How did this test come out for Cc1c(F)c(N2CCNC(C)C2)cc2c1c(=O)c(C(=O)O)cn2C1CC1 (stereo not drawn) ?
inactive

How did this test come out for `Cc1cccc(N)c1C` ?
inactive

How did this test come out for `N=C(N)S(=O)O` ?
active

How did this test come out for `CC(C)c1ccccc1O` ?
inactive

How did this test come out for `Cc1cccc(C#N)c1` ?
inactive

How did this test come out for `COc1ccccc1/C=C/C=O` ?
inactive

How did this test come out for `F` ?
inactive

How did this test come out for CC(C)NCC(O)c1ccc(O)c(O)c1 (stereo not drawn) ?
inactive

How did this test come out for Cc1ccc(CCC2CO2)cc1 (stereo not drawn) ?
inactive

How did this test come out for `CCCC(=O)O` ?
inactive

How did this test come out for `COC=O` ?
inactive

How did this test come out for `FC(F)(F)c1cccc(Cl)c1` ?
inactive

How did this test come out for `O=[N+]([O-])c1ccc(NCCO)c(OCCO)c1` ?
active

How did this test come out for `C=C(C#N)C(=O)OC` ?
inactive

How did this test come out for `CC(CO)(CO)CO` ?
inactive

How did this test come out for CC(O)CCl (stereo not drawn) ?
active

How did this test come out for CNCc1ccc(CSCCNC(=NCC(O)c2ccc(O)cc2)NS(C)(=O)=O)o1 (stereo not drawn) ?
inactive

How did this test come out for `OC[P+](CO)(CO)CO` ?
inactive

How did this test come out for `CN(C)C(=S)N(C)C` ?
inactive

How did this test come out for `O=CNc1ccccc1` ?
inactive

How did this test come out for `O[C@H]([C@H](O)[C@@H](O)CBr)[C@H](O)CBr` ?
active

How did this test come out for `Oc1ccc(-c2ccc(O)cc2)cc1` ?
inactive

How did this test come out for `ClC=C(Cl)Cl` ?
inactive

How did this test come out for c1ccc(Cc2ccc(CC3CO3)cc2)cc1 (stereo not drawn) ?
inactive

How did this test come out for COC(=O)C(Cl)CCC(Cl)CCCCCC(Cl)CCC(Cl)CCCCCl (stereo not drawn) ?
inactive

* * *

- Test system: CCRIS mutagenicity, Ames/micronucleus/aberration tests
- method_notes: CCRIS mutagenicity studies
- settings: Test System: AMES SALMONELLA TYPHIMURIUM; Strain/Indicator: TA98; Metabolic Activation: RAT, LIVER, S-9, AROCLOR 1254; Method: STANDARD PLATE
Active and inactive are the calls of the source. How the calls were made is not given here.
reported_endpoint: mutagenic call

Solved entries:
N#CC1=C(C#N)SCCS1 | inactive; negative
CCCCOC(=O)CC(CC(=O)OCCCC)(OC(C)=O)C(=O)OCCCC | inactive; negative
Cc1nc2ccc3ccc4ccc(O)cc4c3c2o1 | active; positive
CCOC(=O)c1cccc2cccnc12 | inactive; negative
C=CC(=O)OCC(C)(C)COC(=O)C=C | inactive; negative
CC(C)NCC(O)COc1cccc2[nH]c3ccccc3c12 (configuration not stated) | inactive; negative
CCC(=O)N(O)c1ccc(Cl)c(Cl)c1 | inactive; negative
COc1cc([N+](=O)[O-])ccc1N | active; positive

# compound `O=c1cc2ccc3cccc4ccc([nH]1)c2c34` ; its mutagenic call = active; positive

# compound `Nc1ccc(N=Nc2ccccc2)cc1` ; its mutagenic call = active; positive

* * *

- Tested on: CCRIS mutagenicity, Ames/micronucleus/aberration tests
- method_notes: CCRIS mutagenicity studies
- settings: Test System: AMES SALMONELLA TYPHIMURIUM; Strain/Indicator: TA98; Metabolic Activation: RAT, LIVER, S-9, PHENOBARBITAL AND 5,6-BENZOFLAVONE; Method: PREINCUBATION
Activity calls are given as the source filed them. No rule for the calls is given here.
Select the correct class. Options are Y = active, N = inactive and nothing else.

How did this test come out for `CC1=CC(=O)C=CC1=O` ?
N

How did this test come out for `O=C1C=CC(=O)c2c(O)ccc(O)c21` ?
N

How did this test come out for `Nc1cccc([N+](=O)[O-])c1CO` ?
N

How did this test come out for `O=C1C=C(O)c2ccccc2C1=O` ?
N

How did this test come out for `O=C1C(Cl)=C(Cl)C(=O)c2ccccc21` ?
N

How did this test come out for `CC(=O)Nc1cccc(N)c1C(=O)O` ?
Y

How did this test come out for O=[N+]([O-])c1ccc2ccc3cccc4c3c2c1C1OC41 (configuration not stated) ?
N

Source listed as PubChem BioAssay AID1259407.
